Measured IC50, listed per entry.
Target: UniProtKB P21396
Sequence (P21396 whole entry): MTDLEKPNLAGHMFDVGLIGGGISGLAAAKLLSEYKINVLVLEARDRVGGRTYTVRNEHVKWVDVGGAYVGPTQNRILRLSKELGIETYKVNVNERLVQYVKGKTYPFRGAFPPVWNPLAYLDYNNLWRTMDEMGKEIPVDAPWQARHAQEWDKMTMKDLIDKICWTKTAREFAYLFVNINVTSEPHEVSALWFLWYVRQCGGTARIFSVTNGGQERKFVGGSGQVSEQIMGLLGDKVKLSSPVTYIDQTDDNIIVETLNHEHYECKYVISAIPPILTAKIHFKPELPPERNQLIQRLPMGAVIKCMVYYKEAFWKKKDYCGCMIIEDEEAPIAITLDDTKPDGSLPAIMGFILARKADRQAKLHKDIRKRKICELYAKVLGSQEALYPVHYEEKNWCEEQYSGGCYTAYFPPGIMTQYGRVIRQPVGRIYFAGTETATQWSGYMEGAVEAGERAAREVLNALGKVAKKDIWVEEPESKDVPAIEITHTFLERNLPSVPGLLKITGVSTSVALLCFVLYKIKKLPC
Test: In vitro inhibitory activity on rat brain by monoamine oxidase A (MAO-A)
metric: IC50 (µM)

- structureNotation: "N#CCCn1nc(-c2ccc(OCc3ccccc3)cc2)sc1=O"
  testSystem: "UniProtKB P21396"
  metric: "IC50"
  resultUnit: "µM"
  measValue: 45
- structureNotation: "Cc1ccc(COc2ccc(-c3nn(CCC#N)c(=S)o3)cc2)cc1"
  testSystem: "UniProtKB P21396"
  metric: "IC50"
  resultUnit: "µM"
  measValue: 10
- structureNotation: "COc1cccc(COc2ccc(-c3nn(CCC#N)c(=O)o3)cc2)c1"
  testSystem: "UniProtKB P21396"
  metric: "IC50"
  resultUnit: "µM"
  measValue: 19
- structureNotation: "N#CCCN1N=C(c2ccc(OCc3ccc(Cl)cc3)cc2)OCC1=O"
  testSystem: "UniProtKB P21396"
  metric: "IC50"
  resultUnit: "µM"
  measValue: 3.4

----------
Measured IC50, listed per entry.
Target: Amine oxidase [flavin-containing] A (Rattus norvegicus, UniProt P21396)
Sequence (P21396 whole entry): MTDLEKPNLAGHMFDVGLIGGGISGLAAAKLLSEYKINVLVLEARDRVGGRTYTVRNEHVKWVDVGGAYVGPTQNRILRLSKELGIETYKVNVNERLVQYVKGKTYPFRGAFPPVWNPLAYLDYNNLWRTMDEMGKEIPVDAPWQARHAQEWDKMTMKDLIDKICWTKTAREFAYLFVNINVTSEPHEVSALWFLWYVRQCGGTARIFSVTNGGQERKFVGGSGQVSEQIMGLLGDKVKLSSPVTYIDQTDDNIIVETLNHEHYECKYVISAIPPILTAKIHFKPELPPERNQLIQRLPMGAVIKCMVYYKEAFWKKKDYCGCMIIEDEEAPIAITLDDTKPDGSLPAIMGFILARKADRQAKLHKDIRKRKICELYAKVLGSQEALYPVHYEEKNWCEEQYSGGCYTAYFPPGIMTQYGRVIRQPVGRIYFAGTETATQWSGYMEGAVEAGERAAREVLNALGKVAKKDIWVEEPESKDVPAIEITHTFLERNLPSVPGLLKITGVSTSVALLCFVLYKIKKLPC
Test: Compound was evaluated for the time-dependence inhibition of MAO-A at 60 minutes of preincubated period. values are same with or without pre-incubation
metric: IC50 (µM)

- structureNotation: "O=c1oc(-c2ccc(OCc3ccccc3)cc2)nn1CCO"
  resultUnit: "µM"
  inequalityOperator: "="
  measValue: 140
- structureNotation: "N#CCCn1nc(-c2ccc(OCc3ccccc3)cc2)oc1=O"
  resultUnit: "µM"
  inequalityOperator: ">"
  measValue: 100
- structureNotation: "N#CCCn1nc(-c2ccc(OCc3ccccc3)cc2)oc1=S"
  resultUnit: "µM"
  inequalityOperator: "="
  measValue: 12
